Reported values of Ki for individual entries
- Measured On: human mu opioid receptor (Homo sapiens, UniProt P35372)
- Construct: host or cells: CHO-K1
- Sequence (P35372 whole entry): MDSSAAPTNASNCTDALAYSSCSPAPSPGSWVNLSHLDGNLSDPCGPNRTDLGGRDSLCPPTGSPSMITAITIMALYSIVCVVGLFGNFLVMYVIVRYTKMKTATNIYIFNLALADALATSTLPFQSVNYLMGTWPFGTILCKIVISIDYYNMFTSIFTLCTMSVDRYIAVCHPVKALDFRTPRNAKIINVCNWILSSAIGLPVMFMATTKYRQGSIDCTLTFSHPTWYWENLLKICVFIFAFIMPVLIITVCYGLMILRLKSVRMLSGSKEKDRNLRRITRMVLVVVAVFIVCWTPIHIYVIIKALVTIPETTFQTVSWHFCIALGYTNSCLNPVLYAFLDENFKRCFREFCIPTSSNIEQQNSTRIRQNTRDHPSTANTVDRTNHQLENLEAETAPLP
- Protocol Description: Radioligand binding assay, human mu opioid receptor ([3H]-Diprenorphine displacement)
Report field: quantity (unit follows the number).

compound="NC(=O)c1cccc([C@H]2C[C@H]3CC[C@@H](C2)N3Cc2cn(C3CCCCC3)nn2)c1 [Example 1]" observable=Ki measured_result="0.0501 nM"

Lab note: need Ki for NC(=O)c1cccc([C@H]2C[C@H]3CC[C@@H](C2)N3Cc2cn(C3CCC(F)(F)CC3)nn2)c1 [Example 4] on human mu opioid receptor (Homo sapiens, UniProt P35372), anyone have it?
0.1 nM
